- Tested on: OVCAR-4 ovarian
- Test Details: NCI-60 one-dose screen, 48 h
- Applied Conditions: 10 µM unless noted
About 83,000 compounds went through this panel and 20% of them were active in at least one assay; those are over-represented in the sample as a whole. Calls of active or inactive are those of the source. Rule for the calls: active = growth percent below 10; inactive = the rest.
Result category, one only: class 1 = active, class 0 = inactive

>  <Compound>
O=C(NCCCl)NCCN1c2nc3ccccc3cc2Sc2cc3ccccc3nc21

>  <Discrete Label>
class 0

$$$$
>  <Compound>
NS(=O)(=O)N(c1cc(C(F)(F)F)cc(C(F)(F)F)c1)C1CCN(Cc2ccc(C(F)(F)F)cc2)CC1

>  <Discrete Label>
class 0

$$$$
>  <Compound>
N#Cc1c(-c2ccc(F)cc2)n2c(nc1=O)SC(=O)C2=O

>  <Discrete Label>
class 0

$$$$
>  <Compound>
COc1ccc(NS(=O)(=O)N2CCCCC2)cc1

>  <Discrete Label>
class 0

$$$$
>  <Compound>
CC(=O)Nc1c(Cl)cc2c(c1Cl)Cc1cc([N+](=O)[O-])ccc1-2

>  <Discrete Label>
class 0

$$$$
>  <Compound>
COC(=O)N/N=C/c1coc2ccc(Cl)cc2c1=O

>  <Discrete Label>
class 0

$$$$
>  <Compound>
O[N+]1=CC=CCC1=S.On1ccccc1=S.[Zn]

>  <Discrete Label>
class 1

$$$$
>  <Compound>
COc1cc(/C=C/C(=O)C(C(=O)/C=C/c2ccc(OC(=O)CCNC34CC5CC(CC(C5)C3)C4)c(OC)c2)C(=O)CCNC23CC4CC(CC(C4)C2)C3)ccc1OC(=O)CCNC12CC3CC(CC(C3)C1)C2 (stereo unspecified)

>  <Discrete Label>
class 0

$$$$

Dear colleague, could you share the recorded outcome for CCCCCc1c(C)[nH]c(/C=C2\N=C(c3ccc[nH]3)C=C2OCc2ccccc2)c1C when you have a moment?
class 1

Dear colleague, could you share the recorded outcome for N#Cc1ccc(-c2csc(Nc3ccc4nc5n(c(=O)c4c3)CCC5)n2)cc1 when you have a moment?
class 0

Dear colleague, could you share the recorded outcome for CC(=O)N1N=C(c2ccc(C(F)(F)F)cc2)CC1c1ccc2c(c1)OCO2 (stereo unspecified) when you have a moment?
class 0

Dear colleague, could you share the recorded outcome for CCN(CC)c1ccc(C(=C2C=CC(=[N+](CC)Cc3cccc(S(=O)(=O)O)c3)C=C2)c2ccc(N(CC)Cc3cccc(S(=O)(=O)O)c3)cc2)cc1 when you have a moment?
class 0

Dear colleague, could you share the recorded outcome for O=C(CNC(=O)c1cccc2ccccc12)Nc1ccccc1Oc1ccc(O)cc1 when you have a moment?
class 0

Dear colleague, could you share the recorded outcome for O=CN1N=C(c2ccc(Cl)cc2)CC1c1cccc(Nc2ccnc3cc(Cl)ccc23)c1 (stereo unspecified) when you have a moment?
class 0

Dear colleague, could you share the recorded outcome for C/C=C(/C(=C/C)c1ccc(O)cc1)c1ccc(O)cc1 when you have a moment?
class 0
